Source listed as paper PMC12154458.

Target: rSmTAChE (Schistosoma mansoni);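 also: mostly 20 µM final but a few compounds at 5 or 10 µM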
Sequence (A0A3Q0KMM5 27-661 limits assumed): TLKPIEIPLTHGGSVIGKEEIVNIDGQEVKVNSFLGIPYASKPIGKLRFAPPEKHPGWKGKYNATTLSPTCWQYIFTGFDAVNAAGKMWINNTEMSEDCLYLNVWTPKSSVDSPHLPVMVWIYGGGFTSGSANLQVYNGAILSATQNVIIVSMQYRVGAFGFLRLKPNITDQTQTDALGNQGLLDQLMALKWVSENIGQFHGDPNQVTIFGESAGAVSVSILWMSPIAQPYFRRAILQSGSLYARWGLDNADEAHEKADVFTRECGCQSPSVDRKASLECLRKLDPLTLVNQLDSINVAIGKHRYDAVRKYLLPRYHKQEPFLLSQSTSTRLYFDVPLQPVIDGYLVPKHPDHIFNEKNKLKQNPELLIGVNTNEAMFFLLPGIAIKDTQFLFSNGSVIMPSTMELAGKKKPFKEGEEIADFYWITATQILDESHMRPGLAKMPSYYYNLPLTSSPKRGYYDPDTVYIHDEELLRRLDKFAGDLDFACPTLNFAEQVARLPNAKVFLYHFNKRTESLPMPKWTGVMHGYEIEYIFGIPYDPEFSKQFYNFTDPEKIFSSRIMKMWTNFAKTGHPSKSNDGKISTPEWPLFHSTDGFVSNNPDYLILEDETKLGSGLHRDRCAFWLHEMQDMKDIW
Assay: biochemical
As shown below, each of these compounds has a reported Inhibition (%) Replicate A value.
I only need the number, in %, no unit after it.

>>> df
                                     smiles              endpoint_label  number
0  O=C(Cc1cccc(OC(F)(F)F)c1)Nc1ccc(CCCCc2nnc(NC(=O)Cc3ccccn3)s2)nn1  Inhibition (%) Replicate A   74.28

Incoming: Give recorded Inhibition (%) Replicate A with rSmTAChE (Schistosoma mansoni) for the following compound: COc1ccc(C#Cc2ccc3c(c2)O[C@H](CN(C)S(=O)(=O)c2ccccc2F)[C@@H](C)CN([C@H](C)CO)S3(=O)=O)cc1
Outgoing: 75.51

Incoming: Write down the reported Inhibition (%) Replicate A of CCCC(=O)Nc1ccc2c(c1)OC[C@@H](C)N(Cc1cc(-c3ccccc3)on1)C[C@@H](C)[C@H](OC)CN(C)C2=O , test system: rSmTAChE (Schistosoma mansoni).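 Also: mostly 20 µM final but a few compounds at 5 or 10 µM.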
Outgoing: 68.51

Incoming: Requested read-out Inhibition (%) Replicate A, target or system rSmTAChE (Schistosoma mansoni), entry N#C[C@H]1[C@H](c2ccc(C3=CCCCC3)cc2)[C@@H](CO)N1S(=O)(=O)c1ccccc1;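 also: mostly 20 µM final but a few compounds at 5 or 10 µM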
Outgoing: 61.05
